- system-tested: T1, PF4/heparin complex (human PF4 complexed with heparin) (human, UniProt P02776 32-101)
- T1 sequence: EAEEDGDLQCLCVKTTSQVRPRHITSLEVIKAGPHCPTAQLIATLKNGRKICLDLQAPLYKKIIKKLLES
- protocol-details: cell-based or functional assay
Measured % inhibition of 14C-serotonin release (SRA), HIT-Positive Patient #4 serum, scFv 75 µg/mL, listed per entry.
API: value field is a number in %; no unit string.

binder: Mutant B scFv, scFv(R18K, N152K, D180N) (scFv, VL-linker-VH; histidine-tagged, from E. coli BL21; also called Mut B; not shown: histidine tag from the pADL-22c vector) scFv: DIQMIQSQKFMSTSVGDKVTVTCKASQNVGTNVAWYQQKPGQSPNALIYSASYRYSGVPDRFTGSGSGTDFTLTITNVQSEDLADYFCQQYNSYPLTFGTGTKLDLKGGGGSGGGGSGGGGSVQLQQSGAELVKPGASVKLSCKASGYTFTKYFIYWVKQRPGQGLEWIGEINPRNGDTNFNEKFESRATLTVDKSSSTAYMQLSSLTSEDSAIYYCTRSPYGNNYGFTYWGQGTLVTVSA
observed-measurement: 58.9

binder: Wildtype scFv (KKO-derived single chain variable fragment) (scFv, VL-(G4S)3 linker-VH; expressed in E. coli BL21 from pADL-22c, purified on Ni-NTA as histidine-tagged scFv, about 28 kDa; also called WT; KKO-scFv; not shown: histidine tag from the pADL-22c vector) scFv: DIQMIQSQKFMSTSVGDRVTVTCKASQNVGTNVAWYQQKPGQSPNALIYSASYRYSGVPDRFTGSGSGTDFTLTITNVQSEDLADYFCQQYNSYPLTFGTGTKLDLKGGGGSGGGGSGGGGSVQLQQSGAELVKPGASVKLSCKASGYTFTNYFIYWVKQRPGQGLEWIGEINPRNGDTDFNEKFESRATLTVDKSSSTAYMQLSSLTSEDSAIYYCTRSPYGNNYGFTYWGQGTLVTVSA
observed-measurement: 4.4

API: the following record is the query input.
### Prompt Report % inhibition of 14C-serotonin release (SRA), HIT-Positive Patient #4 serum, scFv 75 µg/mL for Mutant E scFv, scFv(Y156H, D180G, Q233P) (scFv, VL-linker-VH; histidine-tagged, from E. coli BL21; also called Mut E; not shown: histidine tag from the pADL-22c vector) scFv: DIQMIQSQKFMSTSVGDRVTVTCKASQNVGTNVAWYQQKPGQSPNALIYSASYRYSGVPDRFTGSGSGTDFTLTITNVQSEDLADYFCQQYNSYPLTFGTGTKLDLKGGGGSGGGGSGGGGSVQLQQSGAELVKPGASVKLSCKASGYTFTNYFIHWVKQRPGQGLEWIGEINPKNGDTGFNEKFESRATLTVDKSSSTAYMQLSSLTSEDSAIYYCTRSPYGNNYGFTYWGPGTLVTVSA please.
### Response 4.4
